Reference source: PubChem BioAssay

Reported differential viability (reversal) values for the following compounds.
Assay: reversal of MRP1-mediated doxorubicin resistance, pilot screen, H69AR cells, doxorubicin co-treatment (AID 601)
Conditions: H69AR cells + 2 uM doxorubicin, CellTiter-Glo, 72 h; at 10 µM; stronger effect = higher value
// units = %; emit number, no label

Reported differential viability (reversal) for `Cc1ccc(NC(=O)CSc2nnc(-c3ccncc3)n2C)cc1C` was 3.42

The recorded differential viability (reversal) for entry `Cc1nc(CNS(=O)(=O)c2cc(C)c(C)cc2C)cs1` equals 4.38

The compound COc1ccc(C(CNC(=O)c2cc(C)oc2C)N2CCOCC2)cc1 (stereo not drawn) showed differential viability (reversal) equal to -9.67

So, `CC(=O)N1CCN(c2ccc(N=Cc3c(O)n(Cc4ccccc4)c(=O)[nH]c3=O)cc2)CC1` ? Its differential viability (reversal) was -3.64

# differential viability (reversal) (compound: CCc1cc2c(=O)n(C(C)C(=O)OC3CCCCC3)cnc2s1 (stereo not drawn) ) is -4.32

* * *

Assay: reversal of MRP1-mediated doxorubicin resistance, pilot screen, H69AR cells, doxorubicin co-treatment (AID 601)
Details: H69AR cells + 2 uM doxorubicin, CellTiter-Glo, 72 h; measured here: viability with 2 uM doxorubicin; at 10 µM; stronger effect = lower value
Property: viability; scope: individual molecules
Provide only the numeric value, understood in %.

Look over these answered cases.
# molecule, measurement-kind, measured
measured = [
    ("CC(=O)c1c(C)oc2ccc(NS(=O)(=O)c3ccc(O)c(C(=O)O)c3)cc12", "viability", 90.9),
    ("Cc1ccc(Nc2nc(CSc3nnnn3C)cs2)cc1", "viability", 87.4),
    ("CSCCC(NC(=O)c1occc1C)C(=O)O (stereo not drawn)", "viability", 89.8),
    ("CC(C)CC(c1nnnn1CC1CCCO1)N1CCN(Cc2ccc3c(c2)OCO3)CC1 (stereo not drawn)", "viability", 88.2),
    ("CSc1nc(=NC(C)=O)ss1", "viability", 91.8),
    ("CCOC(=O)c1c(NC(=O)c2cccs2)sc2c1CCN(C(=O)OCC)C2", "viability", 25.5),
    ("COc1ccc(OC)c(NC(=O)CSc2nc3ccccc3c(=O)n2CCNC(C)=O)c1", "viability", 16.6),
    ("Cc1oc(-c2ccc(Cl)cc2)nc1CS(=O)CC(=O)NCCCN(C)C1CCCCC1 (stereo not drawn)", "viability", 76.3),
    ("CCOC(=O)c1cccc(NC(=O)Cn2cnc3c2c(=O)n(C)c(=O)n3C)c1", "viability", 97.5),
    ("CNC(=O)c1c(O)c2cccc3c2n(c1=O)CC3", "viability", 95.5),
]

Per the records, this molecule ( `Cc1c(C(=O)OC2CCCCC2)[nH]c2c1C(=O)CC(C)(C)C2` ) has viability equal to 82.5

The reported value for Cc1cc(C)c(C)c(OCC(=O)NCC2CCCO2)c1 (stereo not drawn) in terms of viability is 91.9

GET /value?item= O=C(NCC1COc2ccccc2O1)C1CCCN(S(=O)(=O)c2cnc[nH]2)C1 (stereo not drawn) &field=viability returns 89.7

Form field viability, entry `Cc1cc(C(=O)O)ccc1-n1c(C)ccc1C` : 91.8

Measured viability of `O=C(c1ccc(Cl)c(F)c1F)N1CCCC1` : 90.7

// sample `CCOC(=O)C1CCN(C(=O)CSc2n[nH]c(=O)[nH]c2=O)CC1` , its viability was 96.7

Value of viability reported for the molecule `O=C(COc1nnnc2ccccc12)N1CCCc2ccccc21` is 97.9

Sure, the documented viability for `Cc1ccc(-n2c(=O)c3sccc3n(CC(=O)NCc3ccco3)c2=O)cc1` is 91.4

// recorded viability for COc1cc(C2C(C#N)=C(N)Oc3cc(N)ccc32)cc(OC)c1OC (stereo not drawn) : 61.1

* * *

Test: HUVEC growth inhibition – cell-based, human, primary screen (AID 575);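 also: 100% = median of untreated cell wells with 0.1% DMSO on each plate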
Settings: HUVEC proliferation, CellTiter-Glo luminescence, 72 h; at 10 µM; stronger effect = lower value
So basically, if viability comes in under 90% it's TRUE, and if it's 90% or more it's FALSE.

Solved cases (5 shown):
# compound, assigned-label
data = [
    ("O=C(c1ccc(-c2ccccc2)cc1)N1CCN(c2ncccn2)CC1", "FALSE"),
    ("O=c1c2c(nc3nc(COc4ccccc4)[nH]n13)CCC2", "FALSE"),
    ("Cc1ccc(S(=O)(=O)Nc2cc(C(=O)O)ccc2N2CCCCC2)cc1", "FALSE"),
    ("COc1ccc(CCNC(=O)CSc2nncn2N)cc1OC", "FALSE"),
    ("COc1ccc(C)cc1NS(=O)(=O)c1ccc(NS(=O)(=O)c2ccc(NC(C)=O)cc2)cc1", "FALSE"),
]

# check: viability < 90% for CC1=CC2=C(OC1N(C)C)c1cccc3cccc(c13)C2=O (stereo unspecified)
TRUE

Check if viability falls below 90% for `O=C(COc1ccccc1)Nc1ccc(-c2nnc(-c3ccco3)o2)cc1` .
FALSE

Please indicate whether the reported viability of CCC(=O)N1CCc2cc(OC)c(OC)cc2C1COc1ccc(C(=O)OC)cc1 (stereo unspecified) is strictly below 90%.
TRUE

* * *

Property: viability; scope: individual molecules
Test: growth inhibitors of H69AR lung tumor, primary screen, human, duplicate replicates (AID 580);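 also: 100% = mean luminescence of untreated wells and 0% = no signal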
Details: H69AR lung tumor cells viability, ATP luminescence, 72 h; at 10 µM; stronger effect = lower value
Kindly provide the numeric value in % only, without the unit symbol.

Here is how some molecules turned out for viability.
# molecule, measurement-kind, units-label, measured
rows = [
    ("CCOc1ccc2[nH]c(=O)c(CN(Cc3ccccc3)C(=O)N3CCCC3)cc2c1", "viability", "%", 82.1),
    ("O=S(=O)(NCC1CCCO1)c1cc(Cl)ccc1Br (stereo not drawn)", "viability", "%", 96.5),
    ("Nn1c(SCC(=O)Nc2ccc3c(c2)OCCO3)nnc1C(F)(F)F", "viability", "%", 80.9),
]

Lab note: `Clc1cc2c(c(Cn3cnc4ccccc43)c1)OCOC2` gave viability of 98

The recorded viability for `O=C(CSc1ccc(Cl)cc1)OCc1nnc(-c2ccccc2)o1` is 109

Reported viability of O=C(Nc1ccc2c(c1)OCCO2)C1CCCN1S(=O)(=O)c1cccc2cccnc12 (stereo not drawn) : 96.8

For this molecule ( `Cc1ccc(-n2c(=O)c3sccc3n(CC(=O)NCc3ccco3)c2=O)cc1` ), measured viability is 99

Noted for `O=C(COc1ccccc1)Nc1ccc(-c2nnc(-c3ccco3)o2)cc1` : its viability reads 95.5

Per the record, `Cn1c2ccccc2c2ncn(CCCN3CCOCC3)c(=O)c21` has viability of 94.6

Short answer for `CC(C)OC(=O)CN1C(=O)C(C)(C)Oc2ccc(C(=O)NC3CC3)cc21` : viability was 91.6

Please fill in: viability reported for O=C(NCc1cccs1)C1CCCN(c2ncccn2)C1 (stereo not drawn) = 94.8

get_value(item= CN(C)c1ccc2c(c1)OC(N)=C(C#N)C2c1cccc(F)c1 (stereo not drawn) , readout=viability) returns 34.7

Short answer for `CS(=O)(=O)N(Cc1nc2sc3c(c2c(=O)[nH]1)CCCC3)C1CCCCC1` : viability was 84

Record `CN(C)CCCn1c(N)c(C#N)c2nc(C#N)c(C#N)nc21` , field viability: 90.1

Note to self: viability recorded for `CCN(CC)C(=O)CSc1nnc([C@@H](N)Cc2ccccc2)o1` was 98.2

Memo: CC1CCc2cc(F)cc3c(O)c(C(=O)NCC4CCCO4)c(=O)n1c23 (stereo not drawn) , reported viability: 85.6

Entry `Cc1c(NC(=O)CSc2nnc3sc4ccccc4n23)c(=O)n(-c2ccccc2)n1C` — recorded viability = 90.4

// viability value for `C=CCSc1nnc(-c2ccccc2NC(C)=O)c(=O)[nH]1` : 93

viability in this record for CC(Oc1ccccc1)C(=O)N1CCCc2ccccc21 (stereo not drawn) : 94.3

// field: viability; key: `O=C(CSc1nnnn1C1CCCCC1)N1CCc2ccccc21` ; value = 87.1

Note to self: viability recorded for `Cc1cc(=O)n(-c2ccc3ccccc3n2)[nH]1` was 73.4

According to the records, this molecule `O=C(CSc1nnc(-c2cccnc2)o1)Nc1ccccn1` displays viability of 94.4

Measured viability, `Cc1c(C(=O)NCc2ccccc2)oc2c1C(=O)CCC2` : 99.2

* * *

Assay: reversal of MRP1-mediated doxorubicin resistance, pilot screen, H69AR cells, doxorubicin co-treatment (AID 601)
Settings: H69AR cells + 2 uM doxorubicin, CellTiter-Glo, 72 h; measured here: viability with 2 uM doxorubicin; at 10 µM; stronger effect = lower value
measurement-kind: viability (%)
Number in %, nothing else.

Below, 10 compounds whose answers are already recorded.
# compound, viability [%]
data = [
    ("O=C(Cn1c(SCC(=O)N2CCCc3ccccc32)nc2ccccc21)N1CCCC1", 93.6),
    ("O=C(NCc1ccccn1)Nc1ccc2c(c1)OCO2", 87.4),
    ("CCOC(=O)C1CCCN(C/C(O)=C(\\C#N)c2nc(-c3ccc(Cl)cc3)cs2)C1 (stereo unspecified)", 92.1),
    ("COc1ccc(CC(=O)NC2CCN(CC(=O)Nc3ccc4c(c3)OCCO4)CC2)cc1OC", 89.1),
    ("Cc1ccc(CCNC(=O)Cn2cccc2)cc1", 94),
    ("COc1cccc(N2CCN(Cc3cccnc3)CC2)c1", 95.4),
    ("Cn1cnnc1SCC(=O)Nc1sc2c(c1C#N)CCCCC2", 83.9),
    ("Cc1ccccc1NS(=O)(=O)c1cc(S(C)(=O)=O)ccc1Cl", 91.3),
    ("CCC(C)N=C1SCC(C)(/C=N/O)S1 (stereo unspecified)", 95.8),
    ("CCOC(=O)N1CCN(c2c(NCCN(C)Cc3ccccc3)c(=O)c2=O)CC1", 92.9),
]

Field: next compound
The compound identified as `Cc1c(C(=O)OC(C)C)[nH]c2c1C(=O)CCC2` registered its viability at 93
